# target_system: T1, SARS-CoV-2 Wuhan-Hu-1 recombinant spike protein (trimer) (SARS-CoV-2 Wuhan-Hu-1, UniProt P0DTC2)
# T1 construct: source: bought: Sino Biologics
# assay_method_text: ELISA
# experimental_context: both partners purified
outcome_measure: binding result

State its binding result for this binder: C68.185 (antibody, V domains shown) VH: QVQLVQSGAEVKKPGASVKVSCKTSGYAFTDHYVHWVRQAPGQGLEWMGVINPSGVGTSYAQMFQDRVTLTSDTSTSTVYMVLSSLRSEDTAVYYCVRDDYGVPARGWFDPWGQGTLVTVSS VL: EVVLTQSPATLSLSPGERATLSCRASQSISSYLAWYQQKPGQAPRLLIYDASNRATGVPARFSGSGSGADFTLTISSLEAEDFALYYCQHRSNWLYTFGQGTKLEIK binds

State its binding result for this binder: C68.203 (antibody, V domains shown) VH: EVQLLESGGGLVQPGGSLRLSCTASGFTFSRYALTWVRQAPGKGLECVSAFSGSGDSTYYADSVKGRFTISRDNSKNTLYLQMNSLRAEDTAVYYCAKSPRYNSDYFDFWGQGTLVTVSS VL: DIQLTQSPSTLSASVGDRVTITCRASQSISSWLAWYQQKPGKAPKLLIYDASSLESGVPSRFSGSGSGTEFTLTISSLQPDDFATYYCQQYNSFITFGQGTRLEIK binds

State its binding result for this binder: C68.327 (antibody, V domains shown) VH: EVQLLESGGGLVQPGGSLRLSCAASGFTFGSYAMSWVRQAPGKGLEWVSAISGSGGSTYYADSVKGRFTISRDNSKNTLYLQMNSLRAEDTAVYNCAKDLWDGFHWFDSWGQGTLVTVSS VL: DIQMTQSPSSVSASVGDRVTITCRASQGISSWLAWYQQKPGKAPNLLIYSASSLQSGVPSRFSGSGSGTDFTLTISSLQPEDFATYYCQQANSFPITFGQGTRLEIK binds
